# Measured Target: CYP2B6 (Homo sapiens)
# Sequence (P20813 whole entry): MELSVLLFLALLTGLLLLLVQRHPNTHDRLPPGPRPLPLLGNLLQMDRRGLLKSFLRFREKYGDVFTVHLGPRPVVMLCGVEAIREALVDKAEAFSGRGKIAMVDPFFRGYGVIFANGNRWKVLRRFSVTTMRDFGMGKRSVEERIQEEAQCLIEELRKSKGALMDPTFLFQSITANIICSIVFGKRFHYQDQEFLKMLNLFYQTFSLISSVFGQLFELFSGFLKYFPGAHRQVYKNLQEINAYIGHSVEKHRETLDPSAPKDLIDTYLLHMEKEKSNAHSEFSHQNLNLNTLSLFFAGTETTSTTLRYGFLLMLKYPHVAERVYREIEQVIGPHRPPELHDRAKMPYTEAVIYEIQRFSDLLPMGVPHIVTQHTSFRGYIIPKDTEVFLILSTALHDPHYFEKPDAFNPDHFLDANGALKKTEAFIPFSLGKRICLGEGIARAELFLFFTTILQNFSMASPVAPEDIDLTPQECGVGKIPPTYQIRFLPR
# Experiment Description: Inhibition of human recombinant CYP2B6 at 10 uM by spectrofluorimetry
# Format: ADME
inhibition at 10 µM overview
# include the unit after the value

// below: answered molecules
1) CCCCOC(=O)NS(=O)(=O)c1sc(CC(C)C)cc1-c1ccc(CN2CCCC2=O)cc1
33%
2) CCCCOC(=O)NS(=O)(=O)c1sc(CC(C)C)cc1-c1ccc(Cn2cccn2)cc1
29%

(Q) Dear colleague, please send me the reported inhibition at 10 µM for CCCCOC(=O)NS(=O)(=O)c1sc(CC(C)C)cc1-c1ccc(Cn2ccnc2)cc1 [BULOXIBUTID] when you can.
(A) 40%
